# PROCEDURE_TEXT: CO release kinetics by increase of fluorescence intensity
# Type: physicochemical
# CONDITION_NOTES: DMSO/PBS 5:1; DMSO/PBS (pH = 7.4) 5:1 at 37° C.; read-out: t1/2 half-life for CO release (converted)
ASSAY_ENDPOINT: half-life (h)

{"columns": ["MOLECULE", "RESULT"],
 "data": [
  ["C#CCCN(CCOC1OC(CO)C(O)C(O)C1O)C(=O)C1=C2C(=C(c3ccccc3)C1=O)c1cccc3cccc2c13 (stereo not shown)", 2.1]
]}

----------
# PROCEDURE_TEXT: CO release kinetics by increase of fluorescence intensity
# Format: physicochemical
# CONDITION_NOTES: PBS with 1% DMSO; 1% of DMSO in PBS (pH = 7.4); read-out: t1/2 half-life for CO release (converted)

{"columns": ["MOLECULE", "RESULT_UNIT", "half-life"],
 "data": [
  ["C#CCCN(CCOC1OC(CO)C(O)C(O)C1O)C(=O)C1=C2C(=C(c3ccccc3)C1=O)c1cccc3cccc2c13 (stereo not shown) [Compound 100]", "min", 10.8]
]}

----------
This listing pairs compounds with measured λex excitation wavelength.
# PROCEDURE_TEXT: Fluorescence properties of the cycloaddition products
# Type: physicochemical
# CONDITION_NOTES: of the cycloaddition products 44a-44f and 100a

{"columns": ["COMPOUND", "λex excitation wavelength"],
 "data": [
  ["C#CCN(C)C(=O)C1=C2C(=C(c3ccccc3)C1=O)c1cccc3cccc2c13 [Compound 10a]", "371 nm"],
  ["CN(CC#C[Si](c1ccccc1)(c1ccccc1)C(C)(C)C)C(=O)C1=C2C(=C(c3ccccc3)C1=O)c1cccc3cccc2c13 [Compound 10d]", "378 nm"],
  ["C#CCOC(=O)C1=C2C(=C(c3ccccc3)C1=O)c1cccc3cccc2c13 [Compound 10e]", "367 nm"],
  ["C#CCNC(=O)C1=C2C(=C(c3ccccc3)C1=O)c1cccc3cccc2c13 [Compound 10f]", "370 nm"]
]}

----------
# PROCEDURE_TEXT: Fluorescence properties of the cycloaddition products
# Format: physicochemical
# CONDITION_NOTES: of the cycloaddition products 44a-44f and 100a in MeOH, quinine sulfate as the standard

{"columns": ["COMPOUND", "Φ quantum yield"],
 "data": [
  ["C#CCOC(=O)C1=C2C(=C(c3ccccc3)C1=O)c1cccc3cccc2c13 [Compound 10e]", 0.14],
  ["C#CCN(C)C(=O)C1=C2C(=C(c3ccccc3)C1=O)c1cccc3cccc2c13 [Compound 10a]", 0.21],
  ["C#CCNC(=O)C1=C2C(=C(c3ccccc3)C1=O)c1cccc3cccc2c13 [Compound 10f]", 0.18],
  ["CN(CC#C[Si](c1ccccc1)(c1ccccc1)C(C)(C)C)C(=O)C1=C2C(=C(c3ccccc3)C1=O)c1cccc3cccc2c13 [Compound 10d]", 0.21]
]}
